- subject of test: T1, recombinant human CD63 extracellular loop 2 expressed with a C-terminal human Fc tag (human)
- T1 construct: also called hCD63 EC loop 2-hFc; human CD63 EC loop 2-Fc
- experiment: SPR Biacore, mAb captured, 37C
# koff annotations
The figure you give is taken to be in s⁻¹; do not add the unit.

Here's what some known entries look like.
binder	koff [s⁻¹]
H1M12388N (antibody, V domains shown) VH: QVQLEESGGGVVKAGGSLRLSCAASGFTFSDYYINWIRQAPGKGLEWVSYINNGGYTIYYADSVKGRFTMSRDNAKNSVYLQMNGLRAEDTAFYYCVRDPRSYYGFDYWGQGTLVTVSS VL: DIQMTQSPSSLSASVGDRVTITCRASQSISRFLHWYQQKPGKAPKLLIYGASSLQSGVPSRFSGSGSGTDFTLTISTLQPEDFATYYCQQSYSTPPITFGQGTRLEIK	0.000887
H2M12395N (antibody, V domains shown, also called H2aM12395N) VH: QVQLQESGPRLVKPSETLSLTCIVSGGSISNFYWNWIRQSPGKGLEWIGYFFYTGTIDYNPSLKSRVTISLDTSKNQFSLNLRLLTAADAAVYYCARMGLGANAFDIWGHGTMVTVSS VL: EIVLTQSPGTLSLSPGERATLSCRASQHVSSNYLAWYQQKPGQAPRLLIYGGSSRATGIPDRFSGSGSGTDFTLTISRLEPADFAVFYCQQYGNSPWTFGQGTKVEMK	0.00179
H1M12451N (antibody, V domains shown) VH: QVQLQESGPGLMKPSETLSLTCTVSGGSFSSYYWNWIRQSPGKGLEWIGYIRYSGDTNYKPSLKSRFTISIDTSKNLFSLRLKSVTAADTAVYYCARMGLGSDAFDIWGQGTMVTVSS VL: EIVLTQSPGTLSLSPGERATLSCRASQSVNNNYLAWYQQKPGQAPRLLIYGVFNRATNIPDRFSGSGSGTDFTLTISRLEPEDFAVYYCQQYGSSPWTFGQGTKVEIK	0.000331

// below: koff requested for another binder
Request: Report koff for H2M12387N (antibody, V domains shown, also called H2aM12387N) VH: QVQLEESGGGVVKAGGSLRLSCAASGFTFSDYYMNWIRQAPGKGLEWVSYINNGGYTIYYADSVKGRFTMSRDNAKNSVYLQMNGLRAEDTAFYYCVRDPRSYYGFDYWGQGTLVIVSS VL: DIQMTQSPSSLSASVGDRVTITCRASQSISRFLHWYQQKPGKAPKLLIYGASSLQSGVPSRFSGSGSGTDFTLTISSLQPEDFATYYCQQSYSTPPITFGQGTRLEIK please.
Result: 0.000657
